// data source = the supplement of paper PMC9112550

Please respond with reported shrunken log2 fold change for every item in the list.
system: Escherichia coli TOP10; experiment: shrunken log2 fold change of peptide-encoding DNA abundance (4.5 h post-induction vs induction); higher = less antimicrobial activity (less host growth inhibition); settings: time post-induction: 4.5 h; library: site-saturation at positions 5, 18, 19, 20
Numbers only.

Example sequences with recorded shrunken log2 fold change:
RRIRERPPRLPRPRPRPGNKPRP: -0.00852
RRIRMRPPRLPRPRPRPFCCPRP: 0.534
RRIRWRPPRLPRPRPRPHYTPRP: -0.638
RRIRVRPPRLPRPRPRPHELPRP: 0.118
RRIRVRPPRLPRPRPRPPKRPRP: -0.193
RRIRKRPPRLPRPRPRPSKFPRP: -0.16
RRIRRRPPRLPRPRPRPCHAPRP: -0.0577
RRIRYRPPRLPRPRPRPDELPRP: 0.0702
RRIRSRPPRLPRPRPRPVPTPRP: 0.105
RRIRQRPPRLPRPRPRPTYKPRP: -0.549

// input: 4 sequences below; output: shrunken log2 fold change for each
1. RRIRCRPPRLPRPRPRPNRTPRP
2. RRIRRRPPRLPRPRPRPFDSPRP
3. RRIRNRPPRLPRPRPRPVSIPRP
4. RRIRYRPPRLPRPRPRPCLSPRP

## Result
[-0.0547, -0.21, -0.0773, -1.24]

---

system: Escherichia coli TOP10; experiment: shrunken log2 fold change of peptide-encoding DNA abundance (4.5 h post-induction vs induction); higher = less antimicrobial activity (less host growth inhibition); details: time post-induction: 4.5 h; library: site-saturation at positions 5, 18, 19, 20
Kind request: treat 0.1 as inclusive, so shrunken log2 fold change at 0.1 or higher is rule met, anything lower is rule not met.

Consider the worked cases shown below.
RRIRNRPPRLPRPRPRPNMEPRP: rule not met
RRIRDRPPRLPRPRPRPPNWPRP: rule met
RRIRRRPPRLPRPRPRPIWIPRP: rule not met
RRIRTRPPRLPRPRPRPDKQPRP: rule not met
RRIRHRPPRLPRPRPRPSMMPRP: rule not met

## Task For this sequence, is measured shrunken log2 fold change 0.1 or higher? `RRIRSRPPRLPRPRPRPVCAPRP`
## Result rule met

## Task Also need `RRIRRRPPRLPRPRPRPIITPRP` , thanks.
## Result rule not met

## Task Also need `RRIRHRPPRLPRPRPRPDWAPRP` , thanks.
## Result rule not met

## Task Also need `RRIRDRPPRLPRPRPRPAGRPRP` , thanks.
## Result rule met

## Task Also need `RRIRNRPPRLPRPRPRPGVFPRP` , thanks.
## Result rule met

---

tested on: Escherichia coli TOP10; experiment: shrunken log2 fold change of peptide-encoding DNA abundance (4.5 h post-induction vs induction); higher = less antimicrobial activity (less host growth inhibition); conditions: time post-induction: 4.5 h; library: site-saturation at positions 5, 18, 19, 20;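 also: peptides expressed intracellularly from a pBAD plasmid library in pooled LB shake-flask culture, induced with 0.3% L-arabinose, DNA abundance read by NGS, three biological replicates, DESeq2 with apeglm shrinkage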
measurementLabel: shrunken log2 fold change
Give bare numbers.

RRIRGRPPRLPRPRPRPTDTPRP: 0.656

// input: 2 sequences below; output: shrunken log2 fold change for each
1. RRIRTRPPRLPRPRPRPEGRPRP
2. RRIRARPPRLPRPRPRPTMQPRP

## Result
1. 0.1
2. 0.418

// input: 6 sequences below; output: shrunken log2 fold change for each
1. RRIRARPPRLPRPRPRPVSSPRP
2. RRIRIRPPRLPRPRPRPVDPPRP
3. RRIRSRPPRLPRPRPRPAQWPRP
4. RRIRQRPPRLPRPRPRPVQFPRP
5. RRIRRRPPRLPRPRPRPPFYPRP
6. RRIRSRPPRLPRPRPRPFFRPRP

## Result
0.155
0.106
0.595
-0.0919
0.463
-0.0536

// input: 7 sequences below; output: shrunken log2 fold change for each
1. RRIRGRPPRLPRPRPRPKAWPRP
2. RRIRYRPPRLPRPRPRPWDSPRP
3. RRIRTRPPRLPRPRPRPNGAPRP
4. RRIRYRPPRLPRPRPRPLFNPRP
5. RRIRVRPPRLPRPRPRPRDYPRP
6. RRIRIRPPRLPRPRPRPDYQPRP
7. RRIRPRPPRLPRPRPRPASYPRP

## Result
[0.922, -0.00191, -0.0908, -1.24, -0.0816, -0.611, -0.212]
